molecular target: T1, MC1r (murine B16-F1 cells) (murine, UniProt Q01727 1-315); assay: displacement of 125I-NDP-αMSH, murine B16-F1 cells expressing MC1r (method of Example 2, not restated)
T1 construct: whole, on cells; also called MCr1
T1 sequence (Q01727 whole entry): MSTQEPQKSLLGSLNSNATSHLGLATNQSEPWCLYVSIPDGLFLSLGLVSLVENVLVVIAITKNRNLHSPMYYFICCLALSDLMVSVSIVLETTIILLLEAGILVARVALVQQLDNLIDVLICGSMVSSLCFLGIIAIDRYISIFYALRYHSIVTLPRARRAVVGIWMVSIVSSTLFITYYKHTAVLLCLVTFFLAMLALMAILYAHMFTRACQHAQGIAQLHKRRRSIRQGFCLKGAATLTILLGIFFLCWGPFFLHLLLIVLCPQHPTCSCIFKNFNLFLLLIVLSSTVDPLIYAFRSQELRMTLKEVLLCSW
Measured endpoint: Ki
Provide the measurement as a number trailed by its unit.

What does the data say about its Ki? Entry: KYVMGHFRWDRFG (alpha-amino group of Lys1 acetylated; Ac-Lys-Lys attached to the epsilon-amino group of Lys1; D-Trp at position 9; C-terminal amide) [γ-MSH Analogue 1: Ac-(Ac-Lys-Lys)Lys-Tyr-Val-Met-Gly-His-Phe-Arg-DTrp-Asp-Arg-Phe-Gly-NH2]
3.8 nM
